System: SNB-75 CNS
protocol_summary: NCI-60 one-dose screen, 48 h (100 = growth as untreated, 0 = no growth, -100 = all killed)
run_parameters: 10 µM unless noted
Compounds without any hit were thinned out: in the full panel of roughly 83,000, 20% have a hit.
readout_kind: growth (%)
The reply should be a number in %, with the unit left off.

[
  {
    "item_smiles": "CO/C=C/C(=O)c1cc2cnc3c(=N)cc(NC(=O)C(C)C)c([nH]1)c23",
    "growth, %": -11.8
  },
  {
    "item_smiles": "O=C(c1c(F)ccc(NS(=O)(=O)N2CC[C@@H](F)C2)c1F)c1c[nH]c2ncc(-c3cnc(C4CC4)nc3)cc12",
    "growth, %": 37.7
  }
]

Which growth value is on record for O=C1NC(=O)C(c2cnc3ccccn23)=C1c1cn2c3c(cc(F)cc13)CN(C(=O)N1CCCCC1)CC2 ?
37.4
